- measurement_target: human PD-1 / PD-L1-Ig binding on Jurkat cell line over-expressing human PD-1 (Jurkat-PD-1) (Homo sapiens)
- Construct: expressed in transfected cells; host or cells: Jurkat
- Sequence (Q15116 25-288): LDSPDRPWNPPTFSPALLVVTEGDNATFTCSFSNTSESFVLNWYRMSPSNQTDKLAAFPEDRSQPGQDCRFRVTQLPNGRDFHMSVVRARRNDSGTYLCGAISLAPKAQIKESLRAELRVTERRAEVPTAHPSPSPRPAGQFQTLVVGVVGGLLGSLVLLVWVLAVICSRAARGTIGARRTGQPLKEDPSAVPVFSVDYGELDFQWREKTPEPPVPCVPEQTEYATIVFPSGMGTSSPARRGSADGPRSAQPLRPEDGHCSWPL
- test_details: Jurkat-PD-1 Cell Binding High-Content Screening Assay (CBA)
- Type: cell-based
- reported_conditions: Jurkat-PD-1 cells, PE-labeled PD-L1-Ig 20 nM final; read-out: Jurkat HPD1_PDL1 IC50
parameter: IC50
Respond with the figure and its unit, in that order.

INSERT INTO assay_data (chemical_smiles, parameter, readout_value) VALUES
  ('CC(C)C[C@H]1NC(=O)[C@H](CCCN)NC(=O)[C@H](C(C)C)NC(=O)[C@H](Cc2ccc(-c3ccccc3)cc2)NC(=O)[C@H](C(C)C)NC(=O)[C@H](Cc2cccc(C(F)(F)F)c2)NC(=O)[C@H](CC(=O)O)NC(=O)[C@H](Cc2ccc(OCC(=O)O)cc2)NC(=O)[C@H](Cc2ccc(OCC(=O)O)cc2)NC(=O)CSC[C@@H](C(=O)N[C@@H](C)C(N)=O)NC(=O)[C@H]([C@@H](C)O)NC(=O)[C@H](C(C)C)NC(=O)[C@H](CC2CCCCC2)NC(=O)[C@H](CCN)NC1=O', 'IC50', '30.4 nM');

Next compound, IC50 to be filled in.
// sample CC(C)C[C@H]1NC(=O)[C@H](CCCN)NC(=O)[C@H](CCC(=O)O)NC(=O)[C@H](Cc2ccc(-c3ccccc3)cc2)NC(=O)[C@H](C(C)C)NC(=O)[C@H](Cc2c[nH]c3ccccc23)NC(=O)[C@H](CC(=O)O)NC(=O)[C@H](Cc2ccc3ncccc3c2)NC(=O)[C@H](Cc2ccc(OCC(=O)O)cc2)NC(=O)CSC[C@@H](C(=O)N[C@@H](C)C(N)=O)NC(=O)[C@H]([C@@H](C)O)NC(=O)[C@H](C(C)C)NC(=O)[C@H](CC2CCCCC2)NC(=O)[C@H](CCN)NC1=O , its IC50 was 52.7 nM

###

- measurement_target: human PD-1 / PD-L1-Ig binding on Jurkat cell line over-expressing human PD-1 (Jurkat-PD-1) (Homo sapiens)
- Construct: expressed in transfected cells; host or cells: Jurkat
- test_details: Jurkat-PD-1 Cell Binding High-Content Screening Assay (CBA)
- Assay type: cell-based
- reported_conditions: Jurkat-PD-1 cells, PE-labeled PD-L1-Ig 20 nM final; read-out: Jurkat HPD1_PDL1 IC50
Where a SMILES comes first, the peptide text is derived from it. Bridges are numbered along the chain shown (N, C = ends). [ ]: non-standard residue; d: D form. Bip = N[C@@H](Cc1ccc(-c2ccccc2)cc1)C(=O)O; dDap = NC[C@@H](N)C(=O)O
parameter: pIC50
Quick note: pIC50 means taking -log10 of the concentration in moles per liter.

The compound listed as CC(C)C[C@@H]1NC(=O)[C@H](Cc2c[nH]c3ccccc23)NC(=O)[C@H](CC(=O)O)NC(=O)[C@H](Cc2ccc(O)cc2)NC(=O)[C@H](Cc2ccccc2)NC(=O)CSC[C@@H](C(=O)N[C@@H](C)C(N)=O)NC(=O)[C@H](CO)NC(=O)[C@H](C(C)C)NC(=O)[C@H](CC(C)C)NC(=O)[C@H](CC(N)=O)NC(=O)[C@@H](C)NC(=O)[C@@H](CN)NC(=O)[C@H](C(C)C)NC(=O)[C@H](Cc2ccc(-c3ccccc3)cc2)NC1=O [Compound 2002] ({CH2CO}-FYDWL[Bip]V[dDap][dA]NLVSCA-NH2; thioether N-14) shows pIC50 equal to 7.27
